Reference for the values: patent US7863283B2

# Tested on: IL-12
# procedure text: TLR-induced cytokine release in human PBMC: IL-12 (ELISA)
# Assay type: cell-based
# measurement conditions: human PBMC stimulated using a TLR ligand, incubated 18 hours with test substance, supernatant ELISA
# Procedure: TLR-Induced Cytokine Release in Human “Peripheral Blood Mononuclear Cells” (PBMC) PBMCs isolated from human whole blood are stimulated using a TLR ligand. The cytokine determination is carried out by means of ELISA kits; a proliferation/cell metabolism determination is carried out using Alamar Blue. For the cell preparation, about 200 ml of blood are treated with an anticoagulant (e.g. citrate Monovettes). […] The metabolic activity of the treated cells is determined with the aid of Alamar Blue.
attribute measured: pIC50
In textbook form, pIC50 equals minus log to base ten of the concentration in mol/L.

Some compounds with recorded pIC50:
* COc1cc2c(NC(C)C)ncnc2cc1OCCCS(C)(=N)=O (racemic) [Example 3.4] | 4.82
* CC(C)Nc1ncnc2cc(OCc3cccc(S(C)(=N)=O)c3)c(Br)cc12 (racemic) [Example 1.2] | 5.39
* CC(C)Nc1ncnc2cc(OCc3cncc(S(C)(=N)=O)c3)c(Br)cc12 (racemic) [Example 3.7] | 5.40

Reported pIC50, compound CC(C)Nc1ncnc2cc(OCc3ccc(S(C)(=N)=O)cc3)c(Br)cc12 (racemic) [Example 2.8] : ____
4.82

Reported pIC50, compound CCS(=N)(=O)c1cccc(COc2cc3ncnc(NC(C)C)c3cc2OC)c1 (racemic) [Example 2.10] : ____
6.40
